# Assay Target: single-stranded miR-145
# Test Method Notes: Isothermal titration calorimetry (ITC), Waters Nano-ITC
# Type: binding
# Test Context: Multiple Sites model, site 1; read-out: Kd1
# Text: Isothermal titration calorimetry (ITC) utilizes the principle of power compensation to accurately obtain the enthalpy change of intermolecular interactions within a broad concentration range in the system through a single concentration scan. […] Quantifying the thermodynamic properties and energy of the complex is essential for analyzing the molecular basis of the interaction between the microRNA miR-145 and the compound. […]
Measurement Kind: Kd
Respond with a number, then the unit of measure.

Req: Which Kd is listed for O=C(Cc1ccccc1)Nc1cc2cc[nH]c2cn1 [Compound A-3-6] ?
Resp: 70.2 nM
